- TARGET DESC: interaction between GST-MAGEA11 MHD and FAM-PCF11_4 peptide (MAGE-A11:PCF11) (Homo sapiens (Human), UniProt P43364)
- Sequence (P43364 218-429): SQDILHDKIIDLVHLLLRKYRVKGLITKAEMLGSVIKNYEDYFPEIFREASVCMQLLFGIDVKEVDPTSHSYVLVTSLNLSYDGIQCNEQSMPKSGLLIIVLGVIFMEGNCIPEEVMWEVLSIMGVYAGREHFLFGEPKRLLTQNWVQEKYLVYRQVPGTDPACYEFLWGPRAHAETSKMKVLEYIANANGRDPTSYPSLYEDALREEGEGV
- PROTOCOL NOTES: TR-FRET dose response competition assay for disruption of MAGE-A11:PCF11 binding
- ASSAY SETUP: Table 8, representative compounds; read-out: TR-FRET IC50
Reported pIC50 by item:
Bear in mind: pIC50 is minus log10 of a mol/L concentration; give just that figure.

COMPOUND | VALUE KIND | ASSAY RESULT
COc1ccc(C(F)(F)F)cc1CNCCCNc1ccnc2cc(C(F)(F)F)ccc12 | pIC50 | 4.16

What value of measured pIC50 is listed for "COc1ccc(Oc2ccc3c(NCCCNCc4cccc(OC)c4O)ccnc3c2)cc1" ?
4.54

----------
- TARGET DESC: MAGE-A11:PCF11 (Homo sapiens (Human), UniProt P43364)
- PROTOCOL NOTES: TR-FRET single point screening at 15 μM
- Format: binding
- Design: unit not given here
- ASSAY SETUP: single point TR-FRET screening at 15 μM against MAGE-A11:PCF11
Reported TR-FRET signal by item:

Study these solved cases before continuing.
SAMPLE SMILES | VALUE KIND | ASSAY RESULT
CCc1ccc(CN(CCCCNc2ccnc3cc(Cl)ccc23)Cc2ccccc2)cc1 | TR-FRET signal | 29.91
CCCN(CCCNc1c2ccc(Cl)cc2nc2ccc(OC)cc12)Cc1ccc(Br)o1 | TR-FRET signal | −137.3
Cc1ccc(S(=O)(=O)N2CCN(c3ccnc4cc(Cl)ccc34)CC2)cc1 | TR-FRET signal | −38.7
COc1cccc(CN(CCCCNc2ccnc3cc(Cl)ccc23)Cc2ccccc2)c1 | TR-FRET signal | 11.72
CCc1ccc2ncc(S(=O)(=O)c3ccc(OC)cc3)c(N3CCN(c4ccc(F)cc4)CC3)c2c1 | TR-FRET signal | −9.084
CCC(CC)CNCCCNc1c2ccc(Cl)cc2nc2ccc(OC)cc12 | TR-FRET signal | −427.4

What value of measured TR-FRET signal is listed for "Cc1cc(NC(=O)CN[C@H]2CCN(Cc3cccc(F)c3)C2)c2ccccc2n1" ?
−1.278

What value of measured TR-FRET signal is listed for "CCCN(CCCNc1c2ccc(Cl)cc2nc2ccc(OC)cc12)Cc1cccs1" ?
−164.1

What value of measured TR-FRET signal is listed for "COc1ccc(N2CCN(c3c(S(=O)(=O)c4ccccc4)cnc4ccc(OC)cc34)CC2)cc1" ?
−32.67

What value of measured TR-FRET signal is listed for "COc1ccc(S(=O)(=O)c2cnc3cc(OC)c(OC)cc3c2N2CCN(C)CC2)cc1" ?
0.8227

----------
Reported pIC50 by item:
- TARGET DESC: interaction between GST-MAGEA11 MHD and FAM-PCF11_4 peptide (MAGE-A11:PCF11) (Homo sapiens (Human))
- PROTOCOL NOTES: TR-FRET dose response competition assay for disruption of MAGE-A11:PCF11 binding
- ASSAY SETUP: Table 5, dose response TR-FRET screening of 59 quinoline compounds against MAGE-A11:PCF11; read-out: TR-FRET IC50
pIC50: −log10 of the molar value.

Study these solved cases before continuing.
COMPOUND | pIC50
CCCN(CCNc1ccnc2cc(C(F)(F)F)ccc12)Cc1ccc[nH]1 [SJ000361255-1] | < 4.15
Cc1cc(C)cc(Cc2ccc3c(NCCCNCc4ccco4)ccnc3c2)c1 [SJ000311318-2] | < 4.15
COC1CCC(C(F)(F)F)C1CN(CCCCNc1ccnc2cc(Cl)ccc12)Cc1ccccc1 (stereo not drawn) [SJ000520444-1] | < 4.15
CCCN(CCCNc1c2ccc(Cl)cc2nc2ccc(OC)cc12)Cc1c(Cl)ccc(Cl)c1Cl [SJ000523021-1] | < 4.15
Clc1ccc2c(NCCCNCc3cc4ccccc4s3)ccnc2c1 [SJ000521032-1] | < 4.15

What value of measured pIC50 is listed for COC(=O)CCCCCNCCCNc1ccnc2cc(Cl)ccc12 [SJ000521021-1] ?
4.50

What value of measured pIC50 is listed for Cc1ccc(F)cc1CN(CCCCNc1ccnc2cc(Cl)ccc12)Cc1ccccc1 [SJ000520449-1] ?
< 4.15

What value of measured pIC50 is listed for c1ccc(Cc2ccc3c(NCCCNCc4ccco4)ccnc3c2)cc1 [SJ000311306-2] ?
4.49

What value of measured pIC50 is listed for Clc1cccc(Cl)c1Cc1ccc2c(NCCCNCc3ccco3)ccnc2c1 [SJ000311314-1] ?
4.42
